Where do these numbers come from? They come from PubChem BioAssay AID504672.

Tested on: S. cerevisiae tim10 strain, luminescence counterscreen
ASSAY_NOTES: TIM10 strain luminescence inhibitors – S. cerevisiae, uHTS hits, counter-screen for tim23-1 inhibitor project, dose response (AID 504672); in the data active = IC50 below about 71 µM; inactive = the rest;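 note: yeast grew roughly 22 hours at 25 °C before the luminescence read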
Please state which outcome applies, choosing from active, inactive

Dear all, I need the recorded test outcome for `CC(C)OC(=O)c1cccnc1SCc1cc(=O)n2ccccc2n1` , thank you. active

Kindly provide the recorded test outcome for the following molecule: `COCCNC(=O)/C(C#N)=C/c1ccc(OCc2ccc(F)cc2)cc1` active

What did the test return for `COc1ccc(C(=O)COC(=O)c2cncc(Br)c2)cc1` ? active

# lookup: test call for `O=C(CC(=O)c1cc(Cl)ccc1O)c1ccccc1` active

Called result for `Cn1cccc1-c1nc2ccc(NC(=O)c3cccs3)cc2[nH]1` active

Tell me the recorded outcome of this test for `CC(C)n1ncc2c(C(=O)NCC(=O)Nc3ccccc3Br)cc(C3CC3)nc21` . active

I would be grateful if you could indicate the recorded call for `O=C(CSc1cccc[n+]1[O-])Nc1ccccc1Oc1ccccc1` . active

I would be grateful if you could indicate the recorded call for `CCCCc1cc(O)c(CCCC)c(O)c1` . active
